# TEST TARGET: human CD33 variant I47Y (human, UniProt P20138 18-364)
# Sequence (P20138 18-364 I47Y limits assumed): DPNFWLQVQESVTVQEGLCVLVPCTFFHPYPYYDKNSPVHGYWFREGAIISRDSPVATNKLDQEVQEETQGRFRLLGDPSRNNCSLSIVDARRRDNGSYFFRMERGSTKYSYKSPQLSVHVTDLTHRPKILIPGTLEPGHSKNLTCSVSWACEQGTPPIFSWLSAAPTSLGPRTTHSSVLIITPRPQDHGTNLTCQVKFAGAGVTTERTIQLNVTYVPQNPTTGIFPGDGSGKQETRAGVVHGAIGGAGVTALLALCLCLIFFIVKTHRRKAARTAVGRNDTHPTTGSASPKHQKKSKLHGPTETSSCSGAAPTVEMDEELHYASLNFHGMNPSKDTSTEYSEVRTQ
# TEST: flow cytometry, IgG on cells expressing the mutant
PARAMETER: Mean % WT Binding

INSERT INTO measurements (binder, result) VALUES
  ('Refmab #4 (antibody, human IgG1, V domains shown, Tested in IgG format; human IgG1 Fc silent (PG-LALA)) VH: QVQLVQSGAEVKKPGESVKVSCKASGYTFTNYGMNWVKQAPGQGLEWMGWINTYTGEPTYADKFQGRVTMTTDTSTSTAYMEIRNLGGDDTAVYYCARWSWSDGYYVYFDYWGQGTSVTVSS VL: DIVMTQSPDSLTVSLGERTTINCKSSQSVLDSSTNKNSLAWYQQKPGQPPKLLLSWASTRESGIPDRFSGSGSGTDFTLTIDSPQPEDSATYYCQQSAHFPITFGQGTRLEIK', '96 % of WT');
